Experiment: yeast display, Sf9 membrane polyspecificity reagent, FACS + sequencing; frameworks hold sequencing errors

[
  {
    "RESIDUE_CODES": "QVQLVESGGGLVQAGGSLRLSCAASGRIFASYAMGWYRQAPGKERELVASITRRGGSTYYADSVKGRFTISRDNAKNTVYLQMNSLKPPGSTYEGGYWGQGTQVTVSS",
    "polyreactivity (PSR sort gate)": "low polyreactivity"
  },
  {
    "RESIDUE_CODES": "QVQLVESGGGLVQAGGSLRLSCAASGSIFGDNAMGWYRQAPGKERELVAAIDSDGSTNYADSVNGRFTISRDNAKNTVYLQMNSLKPEDTAVYYCAASEPYSKPYTYDYWGQGTQVTVSS",
    "polyreactivity (PSR sort gate)": "low polyreactivity"
  }
]

// data source = the nanobody polyreactivity screen of Harvey et al. (2022)
